Each item that follows carries a reported emission maximum.
assay: solvent given as SMILES; conditions: in Cc1ccccc1
Assay endpoint: emission maximum (nm)

INSERT INTO results (molecule, units_of_measure, reading) VALUES
  ('CCC1=C(C)C2=Cc3c4ccccc4c4n3[B-](C)(Oc3ccccc3-4)[N+]2=C1C (centres undefined)', 'nm', 636),
  ('N#Cc1c(-n2c3ccccc3c3ccccc32)c(-n2c3ccccc3c3ccccc32)cc(-n2c3ccccc3c3ccccc32)c1-n1c2ccccc2c2ccccc21', 'nm', 442),
  ('COc1ccc2c3ccc(OC)cc3n(-c3ccc(-c4nnc(-c5c(C)cc(C)cc5C)o4)cc3C)c2c1', 'nm', 436),
  ('CCN(CC)c1ccc(OC)c(C=O)c1', 'nm', 509),
  ('COc1cc2c3c4c(c5ccc(C(C)(C)C)cc5c5cc(C(C)(C)C)cc(c2c(OC)c1OC)c45)=[N+]1C3=Nc2c3c4cc(OC)c(OC)c(OC)c4c4cc(C(C)(C)C)cc5c6cc(C(C)(C)C)ccc6c(c3c54)n2[B-]1(F)F', 'nm', 832),
  ('FC(F)(F)c1cc2n(n1)[B-](c1ccccc1)(c1ccccc1)[n+]1ccc3ccccc3c1-2', 'nm', 410),
  ('N#Cc1c(-n2c3ccccc3c3ccccc32)c(C#N)c(-n2c3ccccc3c3ccccc32)c(-n2c3ccccc3c3ccccc32)c1-n1c2ccccc2c2ccccc21', 'nm', 507),
  ('COc1ccc(/N=N/c2c(O)c3ccccc3n(C)c2=O)c(S(=O)(=O)O)c1', 'nm', 519),
  ('c1ccc2c(c1)Oc1ccccc1N2c1ccc2c(c1)c1cc(N3c4ccccc4Oc4ccccc43)ccc1c1nc3ccccc3nc21', 'nm', 614),
  ('CC(=O)O[B-]1(OC(C)=O)OC(/C=C/C=C/c2ccccc2)=CC(/C=C/C=C/c2ccccc2)=[O+]1', 'nm', 523),
  ('COC(=O)c1ccc(C2=C3C=CC(C)=[N+]3[B-](F)(F)n3c(C)ccc32)cc1', 'nm', 538),
  ('CN(C)c1ccc(/C=C/C=C/c2nc3ccccc3s2)cc1', 'nm', 500),
  ('c1ccc2c(c1)Oc1ccccc1B2c1ccc(N2c3ccccc3Oc3ccccc32)cc1', 'nm', 522),
  ('Cc1ccc(C2=C3C=c4c(oc5ccccc45)=[N+]3[B-](F)(F)n3c2cc2c4ccccc4oc23)cc1', 'nm', 603);

Hello, the source for this data is the Deep4Chem optical property database, in case you need it.
